Reported %Inh by item:
System: PAK2
Settings: concentration: 1 μM, replicates: in singlicate; n = 1;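 further: KINOMEscan kinase panel screen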
Kindly provide the numeric value in % only, without the unit symbol.

CN1CCN(Cc2ccc(NC(=O)Nc3ccc(N(C)c4ccnc(Nc5ccc(CS(C)(=O)=O)cc5)n4)cc3)cc2)CC1.Cl [GW827654] | 65
Cc1ccc(NC(=O)c2cccc(N3CCCCC3)c2)cc1-c1ccc(C(=O)NCC2CC2)cc1 [GSK1917008] | 24
Cc1ccc(NC(=O)c2ccc(Cl)c(Cl)c2)cc1-c1ccc(C(=O)Nc2ccncc2)cc1 [GSK1398460] | 19
Fc1cc(Cl)ccc1Nc1ccnc2cc(-c3ccc(CN4CCOCC4)o3)ccc12 [GW560109] | 0
COC(=O)Nc1nc2cc(Oc3ccc(NC(=O)Nc4cccc(SC)c4)cc3)ccc2[nH]1.Cl [GW697999] | 0

Record summary for Cc1cccc(Nc2nc(N[C@H]3CCCC[C@H]3N)ncc2C(N)=O)c1.Cl [GSK986310] : reported %Inh = 70

Record summary for COc1cc(Nc2nccc(N3CCC(NS(=O)(=O)c4ccc(NC(C)=O)cc4)CC3)n2)cc(OC)c1OC [GSK1379825] : reported %Inh = 19

Record summary for N#Cc1cnc2cc(-c3cnc(CNCCN4CCOCC4)s3)ccc2c1Nc1ccc(Oc2ccccc2)cc1 [GW664114] : reported %Inh = 0

###

System: WNK2
Conditions: concentration: 1 μM, replicates: in singlicate; n = 1
Lab note: anything with %Inh at or over 10% counts as true; the rest go in false.

Q: # check: %Inh of CS(=O)(=O)c1cccc(CNc2nc(Nc3ccc4c(c3)CCC(=O)N4)ncc2C(F)(F)F)c1 is greater than or equal to 10%
Result: false

###

Test system: PIP5K2C
Construct: gene PIP4K2C
Conditions: concentration: 1 μM, replicates: in singlicate; n = 1
READOUT: %Inh (%)
Kindly provide the numeric value in % only, without the unit symbol.

O=C(O)C(F)(F)F.O=c1[nH]ccc2nc(N[C@@H]3CCNC3)nc(Nc3ccc4c(c3)S(=O)(=O)CC4)c12 | 76
Cl.N#CCc1ccc(Nc2nccc(Nc3ccc(Oc4ccccc4)cc3)n2)cc1 | 78
COc1cccc(-c2nc(-c3ccccc3)[nH]c2-c2ccncc2)c1 | 8
O=C(Nc1n[nH]c2nc(-c3cccc(O)c3)ccc12)C1CC1 | 0
CN(c1ccc2c(c1)nc(NCc1ccccc1)n2C)c1ccnc(Nc2ccc(CS(C)(=O)=O)cc2)n1.Cl | 79

Cc1ccc(NC(=O)c2ccc(Cl)c(Cl)c2)cc1-c1ccc(C(=O)Nc2ccncc2)cc1 tested on PIP5K2C gave %Inh: 0

Cc1ccc(Nc2ccnc(Nc3ccc(C)c(F)c3)n2)cc1O.Cl tested on PIP5K2C gave %Inh: 70

###

System: YSK4
Construct: gene MAP3K19
Settings: concentration: 1 μM, replicates: in singlicate; n = 1
Cut-off 90% on %Inh: below means 1, at or above means 0.

Look over these answered cases.
COc1ccc(C2=C(Nc3cccc(O)c3)C(=O)NC2=O)cc1 [SB-390766] | 1
COc1cc(Nc2nccc(N3CCC(NC(=O)Nc4ccc5c(c4)OCO5)C3)n2)cc(OC)c1OC (stereo not drawn) [GSK1379766] | 1
CS(=O)(=O)c1cccc(CNc2nc(Nc3ccc4c(c3)CCC(=O)N4)ncc2C(F)(F)F)c1 | 0
Cc1ccccc1CC(=O)N1CCc2cc(-c3cn(C)c4ncnc(N)c34)ccc21 [GSK2603346] | 1
Cl.O=C(Nc1ccc(Oc2ccc3[nH]c(NC(=O)c4ccco4)nc3c2)cc1)Nc1cc(C(F)(F)F)ccc1F [GW683134] | 0
COc1cc(Nc2ccnc3cc(-c4ccncc4)ccc23)cc(OC)c1OC.Cl [GW494610] | 0

Turning now to a further compound:
Q: Hello, is %Inh of the following compound strictly smaller than 90%? O=C1NC(=O)C(c2ccccc2Cl)=C1Nc1cccc(Cl)c1 [SB-342409]
Result: 1

###

Test system: PFTK1
Construct: gene CDK14
Conditions: concentration: 1 μM, replicates: in singlicate; n = 1
READOUT: %Inh (%)
Kindly provide the numeric value in % only, without the unit symbol.

// solved cases for %Inh follow
Fc1cc(Cl)ccc1Nc1ccnc2cc(-c3ccc(CN4CCSCC4)o3)ccc12 | 11
CC(C)c1nc(-c2ccc(F)c(NS(=O)(=O)c3c(F)cccc3F)c2)c(-c2ccnc(Nc3ccc(N4CCOCC4)nc3)n2)s1 | 71
CN(c1ccc2c(c1)nc(NCc1ccccc1)n2C)c1ccnc(Nc2ccc(CS(C)(=O)=O)cc2)n1.Cl | 0
Cc1ccc(Nc2ccnc(Nc3ccc(C)c(F)c3)n2)cc1O.Cl | 1
Fc1cc(Cl)ccc1Nc1ccnc2cc(-c3ccc(CN4CCOCC4)o3)ccc12 | 0

We next turn to a different compound, shown below.
CN(c1ccc(NC(=O)N2CCN(CCCN3CCOCC3)CC2)cc1)c1ccnc(Nc2ccc(CS(C)(=O)=O)cc2)n1.Cl tested on PFTK1 gave %Inh: 0

###

Reported %Inh by item:
Test system: AXL
Conditions: concentration: 1 μM, replicates: in singlicate; n = 1
Kindly provide the numeric value in % only, without the unit symbol.

// solved cases for %Inh follow
Cl.O=C(Nc1ccc(Oc2ccc3[nH]c(NC(=O)c4ccco4)nc3c2)cc1)Nc1cc(C(F)(F)F)ccc1F | 96
CC(C)c1nc(-c2ccc(F)c(NS(=O)(=O)c3c(F)cccc3F)c2)c(-c2ccnc(Nc3ccc(N4CCOCC4)nc3)n2)s1 | 82
CCn1cnc2c(NCc3ccccc3)ncnc21 | 0
CS(=O)(=O)c1cccc(CNc2nc(Nc3ccc4c(c3)CCC(=O)N4)ncc2C(F)(F)F)c1 | 23

Record summary for Cc1nn2c(=O)cc(N3CCO[C@H](C)C3)nc2n1Cc1cccc(Cl)c1Cl : reported %Inh = 4

Record summary for COc1cccc2c(-c3ccncc3)c(-c3ccc(F)cc3)nn12 : reported %Inh = 13

Record summary for COC(=O)Nc1nc2cc(Oc3ccc(NC(=O)Nc4cccc(SC)c4)cc3)ccc2[nH]1.Cl : reported %Inh = 90.1

Record summary for COc1ccc(C)c(Nc2ccnc(Nc3ccc(-c4cnc[nH]4)cc3)n2)c1.Cl : reported %Inh = 0

###

Test system: EPHA8
Conditions: concentration: 1 μM, replicates: in singlicate; n = 1
READOUT: %Inh
Number first, unit second: that is the form wanted.

COC(=O)Nc1nc2cc(Oc3ccc(NC(=O)Nc4cccc(SC)c4)cc3)ccc2[nH]1.Cl [GW697999] | 96.8%

CCn1c(-c2nonc2N)nc2c(-c3ccccc3)ncc(OCCCN)c21.O=C(O)C(F)(F)F.O=C(O)C(F)(F)F [GSK260205] tested on EPHA8 gave %Inh: 10%

Fc1cc(Cl)ccc1Nc1ccnc2cc(-c3ccc(CN4CCOCC4)o3)ccc12 [GW560109] tested on EPHA8 gave %Inh: 90.2%

CC(C)(C)c1ccc(C(=O)Nc2cn3cc(-n4ccnc4)ccc3n2)cc1 tested on EPHA8 gave %Inh: 0%

###

System: MEK6
Construct: gene MAP2K6
Conditions: concentration: 1 μM, replicates: in singlicate; n = 1
Reported %Inh by item:
Kindly provide the numeric value in % only, without the unit symbol.

// solved cases for %Inh follow
O=C(O)C(F)(F)F.O=c1[nH]ccc2nc(N[C@@H]3CCNC3)nc(Nc3ccc4c(c3)S(=O)(=O)CC4)c12 | 68
COc1cccc(NC(=O)NCCNc2ccnc(Nc3ccc(F)cc3)n2)c1 | 0
CCNc1nccc(-c2c(-c3ccc(F)cc3)ncn2C2CCN(C)CC2)n1 | 15
CN(C)CCNS(=O)(=O)c1ccc(-c2ccnc3[nH]ccc23)cc1 | 100
CN(c1ccc(NC(=O)N2CCN(CCCN3CCOCC3)CC2)cc1)c1ccnc(Nc2ccc(CS(C)(=O)=O)cc2)n1.Cl | 0

Cl.N#CCc1ccc(Nc2nccc(Nc3ccc(Oc4ccccc4)cc3)n2)cc1 tested on MEK6 gave %Inh: 0

CSc1ccc(NC2=C(c3ccc(Cl)cc3)C(=O)NC2=O)cc1 tested on MEK6 gave %Inh: 3

Cc1ccc(C)c(NC(=O)Nc2ccc(C)c(-c3ccc(C(=O)Nc4ccncc4)cc3)c2)c1 tested on MEK6 gave %Inh: 0

###

Test system: GRK7
Settings: concentration: 1 μM, replicates: in singlicate; n = 1
Reported %Inh by item:
Kindly provide the numeric value in % only, without the unit symbol.

COC(=O)Nc1nc2ccc(Oc3ccc(NC(=O)Nc4cc(C(F)(F)F)ccc4F)cc3)cc2[nH]1.Cl | 0
Cc1ccc(O)cc1Nc1ccnc2ccc(C(C)(C)C)cc12 | 37
CN(C)CCOc1ccc(-c2cc(-c3ccc(Cl)c(O)c3)c(-c3ccncc3)[nH]2)cc1.Cl.Cl | 17

Record summary for O=C(Nc1n[nH]c2nc(-c3ccccc3O)ccc12)C1CC1 : reported %Inh = 12

###

System: TRPM6
Settings: concentration: 1 μM, replicates: in singlicate; n = 1
Reported %Inh by item:
Kindly provide the numeric value in % only, without the unit symbol.

// solved cases for %Inh follow
CN(c1ccc2c(c1)nc(NCc1ccccc1)n2C)c1ccnc(Nc2ccc(CS(C)(=O)=O)cc2)n1.Cl | 0
COC(=O)Nc1nc2ccc(Oc3ccc(NC(=O)Nc4cc(C(F)(F)F)ccc4F)cc3)cc2[nH]1.Cl | 26
N#CC1(c2cccc(C(=O)Nc3cccc(Oc4ccc5nc(NC(=O)C6CC6)sc5n4)c3)c2)CC1 | 12

Record summary for CN(C)CCNS(=O)(=O)c1ccc(-c2ccnc3[nH]ccc23)cc1 : reported %Inh = 0

Record summary for COC(=O)Nc1nc2cc(Oc3ccc(NC(=O)Nc4cccc(SC)c4)cc3)ccc2[nH]1.Cl : reported %Inh = 0

Record summary for CSc1ccc(NC2=C(c3ccc(Cl)cc3)C(=O)NC2=O)cc1 : reported %Inh = 0

Record summary for COc1ccc(C2=C(Nc3cccc(O)c3)C(=O)NC2=O)cc1 : reported %Inh = 30

Record summary for CN1CCN(Cc2ccc(NC(=O)Nc3ccc(N(C)c4ccnc(Nc5ccc(CS(C)(=O)=O)cc5)n4)cc3)cc2)CC1.Cl : reported %Inh = 0

Record summary for CN(C)c1ncnc2nc[nH]c12 : reported %Inh = 30
